Would you kindly list IC50 for each of these compounds?
System: 922993-354-T-J3-PDC complex spheroid viability
Assay: Anticancer human tumor 922993-354-T-J3-PDC patient-derived endometrial carcinoma cell line growth inhibition [POLQ]
Details: curve of first compound; second compound 3.16 µM
Procedure: Multicellular complex tumor spheroid response to Polymerase (POL) inhibitors (novobiocin, ART-558, RP6685) in combination with a variety of drugs and investigational agents in selected tumor cell lines The POL inhibitors (novobiocin, ART-558, and RP6685) were evaluated both individually and in combination with standard of care and investigational anticancer small molecules within a complex spheroid model of solid tumors. . […]

[[record]]
compound = "CC[C@@]1(O)C(=O)OCc2c1cc1n(c2=O)Cc2cc3c(CN(C)C)c(O)ccc3nc2-1 + Nc1ccc(C#CCN(C(=O)Cc2ncc(C(F)(F)F)cc2C(F)(F)F)c2ccc(F)cc2)nn1"
measure_name = "IC50"
observed_value = "> 100 nM"


Batch of 2 compounds: report IC50 for each.
1. COc1ccc([C@@H](O)c2cc(-c3ncnc4cc(N5CCOCC5)ccc34)c(F)cc2Cl)nn1 + Nc1ccc(C#CCN(C(=O)Cc2ncc(C(F)(F)F)cc2C(F)(F)F)c2ccc(F)cc2)nn1
2. Cn1ncnc1[C@H]1c2n[nH]c(=O)c3cc(F)cc(c23)N[C@@H]1c1ccc(F)cc1 + Nc1ccc(C#CCN(C(=O)Cc2ncc(C(F)(F)F)cc2C(F)(F)F)c2ccc(F)cc2)nn1

Result:
1: > 10000 nM; 2: > 100 nM

====

System: 922993-354-T-J3-PDC complex spheroid viability
Assay: Anticancer human tumor 922993-354-T-J3-PDC cell line growth inhibition [POLQ];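 note: spheroids exposed to the agents for one week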;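 for viability, T/C: 100% = DMSO vehicle control wells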
Details: second compound 10 µM; first compound 0.316 µM; stronger effect = lower value
measure-name: viability, T/C

Would you please look over these solved cases?
[[record]]
compound = "CCc1cc2c(N3CCc4c(cc(Cn5ccnc5)cc4-c4cn(C)nc4C(F)(F)F)C3=O)cc(C)nc2c(OC)n1 + Nc1ccc(C#CCN(C(=O)Cc2ncc(C(F)(F)F)cc2C(F)(F)F)c2ccc(F)cc2)nn1"
observed_value = "100%"

[[record]]
compound = "C=CCn1c(=O)c2cnc(Nc3ccc(N4CCN(C)CC4)cc3)nc2n1-c1cccc(C(C)(C)O)n1 + Cc1cccc(N(C)C(=O)C2C(O)CCN2c2nc(C)cc(C(F)(F)F)c2C#N)c1"
observed_value = "103%"

[[record]]
compound = "O=c1[nH]cc(F)c(=O)[nH]1 + Cc1cccc(N(C)C(=O)C2C(O)CCN2c2nc(C)cc(C(F)(F)F)c2C#N)c1"
observed_value = "111%"

[[record]]
compound = "COc1ccc([C@@H](O)c2cc(-c3ncnc4cc(N5CCOCC5)ccc34)c(F)cc2Cl)nn1 + Cc1cccc(N(C)C(=O)C2C(O)CCN2c2nc(C)cc(C(F)(F)F)c2C#N)c1"
observed_value = "91.4%"

[[record]]
compound = "CC1COCCN1c1cc(C2(O)CC3CCC(C2)O3)c2cnn(-c3ccn[nH]3)c2n1 (stereo not drawn) + Nc1ccc(C#CCN(C(=O)Cc2ncc(C(F)(F)F)cc2C(F)(F)F)c2ccc(F)cc2)nn1"
observed_value = "62.4%"

[[record]]
compound = "CCCS(=O)(=O)Nc1ccc(F)c(C(=O)c2c[nH]c3ncc(-c4ccc(Cl)cc4)cc23)c1F + Nc1ccc(C#CCN(C(=O)Cc2ncc(C(F)(F)F)cc2C(F)(F)F)c2ccc(F)cc2)nn1"
observed_value = "103%"

[[record]]
compound = "COc1cccc(OCCCN)c1-c1cc(Nc2cnc(C#N)cn2)n[nH]1 + Nc1ccc(C#CCN(C(=O)Cc2ncc(C(F)(F)F)cc2C(F)(F)F)c2ccc(F)cc2)nn1"
observed_value = "10.5%"


Moving on to the next compound.
GET /value?item= CCc1c2c(nc3ccc(O)cc13)-c1cc3c(c(=O)n1C2)COC(=O)[C@]3(O)CC + COC1C(OC(N)=O)C(O)C(Oc2ccc3c(O)c(NC(=O)c4ccc(O)c(CC=C(C)C)c4)c(=O)oc3c2C)OC1(C)C &field=viability, T/C returns 13.1%
